Target: 5-hydroxytryptamine receptor 1B (Homo sapiens, UniProt P28222)
Sequence (P28222 whole entry): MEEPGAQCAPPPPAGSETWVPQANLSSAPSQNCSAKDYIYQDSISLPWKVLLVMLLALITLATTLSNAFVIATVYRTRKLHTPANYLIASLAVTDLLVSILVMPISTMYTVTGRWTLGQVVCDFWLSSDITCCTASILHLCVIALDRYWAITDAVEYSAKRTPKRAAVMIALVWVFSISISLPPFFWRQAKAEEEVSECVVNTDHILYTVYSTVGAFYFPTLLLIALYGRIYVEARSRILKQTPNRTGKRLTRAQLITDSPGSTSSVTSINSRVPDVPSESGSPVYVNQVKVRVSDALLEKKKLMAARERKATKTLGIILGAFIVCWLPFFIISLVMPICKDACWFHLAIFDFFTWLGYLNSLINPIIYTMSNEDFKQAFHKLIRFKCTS
Assay: Binding affinity to 5-HT1B receptor by radioligand displacement assay

{"columns": ["query.smiles", "Ki"],
 "data": [
  ["O=C(Cc1ccccc1)NC1CCN(CCCN2C(=O)COc3ccccc32)CC1", "≥ 1000 nM"]
]}

---

Target: Neuronal acetylcholine receptor; alpha4/beta2 (Homo sapiens, UniProt P17787+P43681)
Sequence (P17787 whole entry): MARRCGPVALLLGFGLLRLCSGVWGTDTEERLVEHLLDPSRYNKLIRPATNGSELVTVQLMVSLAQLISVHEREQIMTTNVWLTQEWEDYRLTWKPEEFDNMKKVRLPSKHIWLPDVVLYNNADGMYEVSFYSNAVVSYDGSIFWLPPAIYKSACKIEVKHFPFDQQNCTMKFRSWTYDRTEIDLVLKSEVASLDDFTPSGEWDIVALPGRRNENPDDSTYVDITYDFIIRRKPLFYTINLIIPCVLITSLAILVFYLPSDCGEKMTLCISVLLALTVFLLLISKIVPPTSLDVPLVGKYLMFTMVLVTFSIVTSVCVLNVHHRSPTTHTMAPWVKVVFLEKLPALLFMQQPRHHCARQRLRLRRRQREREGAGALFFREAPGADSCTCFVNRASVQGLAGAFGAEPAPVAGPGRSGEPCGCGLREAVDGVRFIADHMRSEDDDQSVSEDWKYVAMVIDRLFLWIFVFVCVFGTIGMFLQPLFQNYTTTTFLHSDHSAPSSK
Sequence (P43681 whole entry): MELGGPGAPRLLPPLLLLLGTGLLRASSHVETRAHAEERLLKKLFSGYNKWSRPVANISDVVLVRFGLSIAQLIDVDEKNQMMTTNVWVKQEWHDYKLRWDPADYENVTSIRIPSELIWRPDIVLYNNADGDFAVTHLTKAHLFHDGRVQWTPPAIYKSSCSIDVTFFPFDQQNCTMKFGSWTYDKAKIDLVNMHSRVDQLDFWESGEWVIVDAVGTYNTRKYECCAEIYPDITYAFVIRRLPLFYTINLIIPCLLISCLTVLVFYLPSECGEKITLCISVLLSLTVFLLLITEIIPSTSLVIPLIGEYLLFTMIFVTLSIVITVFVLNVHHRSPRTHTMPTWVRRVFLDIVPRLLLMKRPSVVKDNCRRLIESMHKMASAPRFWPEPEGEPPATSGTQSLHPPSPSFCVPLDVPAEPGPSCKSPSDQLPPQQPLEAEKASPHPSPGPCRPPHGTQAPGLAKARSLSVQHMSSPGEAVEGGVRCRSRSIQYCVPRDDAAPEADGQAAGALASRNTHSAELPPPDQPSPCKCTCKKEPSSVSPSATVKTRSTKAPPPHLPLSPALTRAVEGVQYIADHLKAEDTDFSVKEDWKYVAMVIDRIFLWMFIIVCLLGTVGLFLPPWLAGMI
Assay: Binding affinity to nAChR alpha4beta2 receptor by radioligand displacement assay
pKi: −log10 of the molar value.

{"columns": ["query.smiles", "pKi"],
 "data": [
  ["O=C(Cc1ccccc1)NC1CCN(CCCN2C(=O)COc3ccccc32)CC1", "≤ 6.00"]
]}
